# key: entry, value: Emax
Biological target: mGPR65 (Mus musculus, UniProt Q61038)
Construct: expressed in transfected cells; host or cells: HeLa (ATCC CCL-2), lentiviral transduction, pLX317
Sequence (Q61038 whole entry): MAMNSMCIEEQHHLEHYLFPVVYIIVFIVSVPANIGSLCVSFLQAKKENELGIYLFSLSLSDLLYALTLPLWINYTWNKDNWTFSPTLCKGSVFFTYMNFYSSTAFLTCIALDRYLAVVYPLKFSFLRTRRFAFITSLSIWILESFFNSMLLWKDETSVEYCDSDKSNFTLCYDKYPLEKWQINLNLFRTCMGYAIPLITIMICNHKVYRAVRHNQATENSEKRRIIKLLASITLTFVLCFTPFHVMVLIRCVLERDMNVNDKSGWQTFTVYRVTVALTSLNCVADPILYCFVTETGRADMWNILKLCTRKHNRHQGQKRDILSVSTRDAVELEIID
Assay: cAMP detection in HeLa expression cell line, mGPR65
Format: cell-based
Settings: HeLa, 2nd mGPR column pair; relative to 100uM forskolin (100%) and DMSO (0%); NA = no activity; read-out: mGPR Max Activity %
Respond with the bare value in %.

compound: Cc1ccc(NC(=O)c2cnn3c(O)cc(-c4ccc(COC(C)C)cc4)nc23)nc1 [BRD5075]
tested-system: mGPR65 (Mus musculus, UniProt Q61038)
Emax / %: 69.6
//
compound: Cc1ccc(NC(=O)c2cnn3c(O)cc(-c4ccc(-c5ccccc5C(C)C)cc4)nc23)cc1 [BRD4665]
tested-system: mGPR65 (Mus musculus, UniProt Q61038)
Emax / %: 33.2
//
compound: CC(C)OCc1ccc(-c2cc(O)n3ncc(C(=O)Nc4cccnc4)c3n2)cc1 [BRD5077]
tested-system: mGPR65 (Mus musculus, UniProt Q61038)
Emax / %: 62.4

# ---- query compound ----
Query: In one line, give reported Emax of the entry Cc1ccc(NC(=O)c2cnn3c(O)cc(-c4ccc(N5CCN(C)CC5)cc4)nc23)cc1 [BRD7215] .
Reply: 48.7

====

Target: hGPR65 (Homo sapiens)
Construct: expressed in transfected cells; host or cells: HeLa (ATCC CCL-2), lentiviral transduction, pLX317
Assay: cAMP detection in HeLa expression cell line, hGPR65
Assay type: cell-based
Settings: HeLa, 1st hGPR column pair; relative to 100uM forskolin (100%) and DMSO (0%); NA = no activity; read-out: hGPR Max Activity %
Think of 70% as a floor: if Emax stands on it or above, it is yes (1); beneath it, no (0).

Would you please look over these solved cases?
mol: Cc1ccc(NC(=O)c2cnn3c(O)cc(-c4ccc(N5CCOCC5)c(Cl)c4)nc23)cc1
class-assignment: yes (1)

mol: Cc1ccc(NC(=O)c2cnn3c(O)cc(-c4ccc(C(F)(F)F)cc4)nc23)cc1
class-assignment: yes (1)

mol: CCOCc1ccc(-c2cc(O)n3ncc(C(=O)Nc4ccc(C)cc4)c3n2)cc1
class-assignment: yes (1)

Query: Exam item: decide whether the reported Emax for Cc1ccc(NC(=O)c2cnn3c(O)cc(-c4ccc(-c5ccccc5C(C)C)cc4)nc23)cc1 is at least 70%.
Reply: yes (1)

Query: Exam item: decide whether the reported Emax for Cc1ccc(NC(=O)c2cnn3c(O)cc(-c4ccc(F)c(Cl)c4)nc23)cc1 is at least 70%.
Reply: yes (1)

Query: Exam item: decide whether the reported Emax for Cc1ccc(NC(=O)c2cnn3c(O)cc(-c4cnc(N5CCOCC5)c(Cl)c4)nc23)cc1 is at least 70%.
Reply: no (0)

Query: Exam item: decide whether the reported Emax for COc1ccc(-c2ccn3ncc(C(=O)Nc4ccc(C)cc4)c3n2)cc1 is at least 70%.
Reply: no (0)

Query: Exam item: decide whether the reported Emax for CCCc1cc(-c2cc(O)n3ncc(C(=O)Nc4ccc(C)cc4)c3n2)no1 is at least 70%.
Reply: no (0)

====

Target: hGPR65 (Homo sapiens, UniProt Q8IYL9)
Construct: expressed in transfected cells; host or cells: HeLa (ATCC CCL-2), lentiviral transduction, pLX317
Sequence (Q8IYL9 whole entry): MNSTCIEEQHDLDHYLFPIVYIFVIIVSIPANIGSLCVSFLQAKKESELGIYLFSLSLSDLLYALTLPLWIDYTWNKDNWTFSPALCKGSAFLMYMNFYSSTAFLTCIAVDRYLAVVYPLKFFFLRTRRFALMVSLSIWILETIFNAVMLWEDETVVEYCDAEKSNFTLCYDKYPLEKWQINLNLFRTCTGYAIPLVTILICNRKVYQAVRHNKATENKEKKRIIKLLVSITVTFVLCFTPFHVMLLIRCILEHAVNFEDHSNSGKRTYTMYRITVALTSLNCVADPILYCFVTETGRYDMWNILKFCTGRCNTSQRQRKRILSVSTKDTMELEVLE
Experiment: cAMP detection (Lance Ultra), GPR65 KO HeLa reconstituted with hGPR65; 21K screen dose confirmation
Type: cell-based
Details: HeLa GPR65 KO + hGPR65, pH 7.1, 30 min, normalized to DMSO and 100 μM forskolin; read-out: WT EC50
# key: entry, value: EC50

Answered examples (3):
compound: O=C(O)CCSCCc1ccncc1
reported-result: 37.8 µM

compound: COc1cc(Br)c(-c2cc3ccccc3oc2=O)cc1OC
reported-result: < 10 µM

compound: CS(=O)(=O)N1CCN(c2ccnc3cc(Cl)ccc23)CC1
reported-result: 27.5 µM

Query: In one line, give reported EC50 of the entry O=S1(=O)CCC(Cn2cc(-c3ccnc4ccccc34)nn2)C1 (centres unmarked) .
Reply: 19.9 µM

Query: In one line, give reported EC50 of the entry O=C(O)c1nccnc1C(=O)N1CCCN(c2c(Cl)cncc2Cl)CC1 .
Reply: > 100 µM

Query: In one line, give reported EC50 of the entry O=c1[nH]c2ccccc2c2oc(-c3ccccc3)nc12 .
Reply: 91.2 µM

Query: In one line, give reported EC50 of the entry O=C(c1ccc2nc[nH]c2c1)N1CCC(CCOc2ccccc2)(C(=O)O)CC1 .
Reply: 4.6 µM

Query: In one line, give reported EC50 of the entry Cn1c(=O)n(C)c2cc(NC(=O)CSc3ncc(C#N)c(N)n3)ccc21 .
Reply: > 100 µM
